assay: physchem; details: Tetrahydrofuran (THF)
Residues, ends and D or L forms follow the SMILES beside them.
Value kind: solubility

INSERT INTO assay_data (molecule, value_kind, value) VALUES
  ('CC(C)C[C@H](NC(=O)[C@@H](NC(=O)CNC(=O)CN)C(C)C)C(=O)N[C@H](C(=O)N[C@@H](CCC(N)=O)C(=O)N1CCC[C@H]1C(=O)NCC(=O)O)C(C)C [Form A] (H-GGVLVQPG-OH)', 'solubility', '< 4000 µg/mL');

----------
assay: physchem; conditions: Methanol (MeOH)
Residues, ends and D or L forms follow the SMILES beside them.
Value kind: solubility

INSERT INTO measurements (molecule, value_kind, value) VALUES
  ('CC(C)C[C@H](NC(=O)[C@@H](NC(=O)CNC(=O)CN)C(C)C)C(=O)N[C@H](C(=O)N[C@@H](CCC(N)=O)C(=O)N1CCC[C@H]1C(=O)NCC(=O)O)C(C)C [Form A] (H-GGVLVQPG-OH)', 'solubility', '< 4000 µg/mL');

----------
assay: physchem; details: water
Residues, ends and D or L forms follow the SMILES beside them.
Value kind: solubility (µg/mL)

INSERT INTO assay_data (compound, value) VALUES
  ('CC(C)C[C@H](NC(=O)[C@@H](NC(=O)CNC(=O)CN)C(C)C)C(=O)N[C@H](C(=O)N[C@@H](CCC(N)=O)C(=O)N1CCC[C@H]1C(=O)NCC(=O)O)C(C)C [Form A] (H-GGVLVQPG-OH)', 8000);

----------
experiment: physchem; conditions: Trifluoroethanol (TFE)
Residues, ends and D or L forms follow the SMILES beside them.
Value kind: solubility (µg/mL)

INSERT INTO results (compound, value) VALUES
  ('CC(C)C[C@H](NC(=O)[C@@H](NC(=O)CNC(=O)CN)C(C)C)C(=O)N[C@H](C(=O)N[C@@H](CCC(N)=O)C(=O)N1CCC[C@H]1C(=O)NCC(=O)O)C(C)C [Form A] (H-GGVLVQPG-OH)', 4000);

----------
experiment: physchem; details: water
Residues, ends and D or L forms follow the SMILES beside them.
Value kind: solubility at 14 h

INSERT INTO assay_data (molecule, value) VALUES
  ('CC(C)C[C@H](NC(=O)[C@@H](NC(=O)CNC(=O)CN)C(C)C)C(=O)N[C@H](C(=O)N[C@@H](CCC(N)=O)C(=O)N1CCC[C@H]1C(=O)NCC(=O)O)C(C)C [Larazotide Chloride] (H-GGVLVQPG-OH)', '≥ 300 mg/mL');

----------
Assay: physchem
Conditions: Dioxane
Description: Approximate solubilities of Larazotide acetate Form A in different solvents were determined. Aliquots of the test solvent were added to weighed samples of Larazotide. The samples were sonicated to aid in dissolution. Visual inspection was used to determine if a sample had dissolved. The approximate solubility was calculated from the total amount of solvent added.
Residues, ends and D or L forms follow the SMILES beside them.
Value kind: solubility

INSERT INTO assay_data (molecule, value_kind, value) VALUES
  ('CC(C)C[C@H](NC(=O)[C@@H](NC(=O)CNC(=O)CN)C(C)C)C(=O)N[C@H](C(=O)N[C@@H](CCC(N)=O)C(=O)N1CCC[C@H]1C(=O)NCC(=O)O)C(C)C [Form A] (H-GGVLVQPG-OH)', 'solubility', '< 4000 µg/mL');
